Data origin: PubChem BioAssay AID1117361

Recorded pIC50 values for a group of compounds are listed next.
# measurement-target: Protein Tat (Human immunodeficiency virus type 1 group M subtype B (isolate HXB2)) (UniProt P04608)
# Sequence (P04608 whole entry, looked up): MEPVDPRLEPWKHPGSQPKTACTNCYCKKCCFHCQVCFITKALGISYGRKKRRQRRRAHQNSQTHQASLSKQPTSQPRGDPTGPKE
# assay-protocol: inhibitors of Tat binding to TAR RNA, dose response, counter-screen for Vif-APOBEC3G degradation inhibitor project, biochemical, fluorescence polarization, FAM-labeled TAR RNA (AID 1117361)
By convention, pIC50 is the negative base-10 log of a molar concentration.

// below: answered compounds
Oc1ccc(/C=N/NC2=NCCCCC2)c(O)c1 : 4.60
COC/C=C/C1=CC2=CC(=O)C(C)(OC(=O)c3cnc4ccccc4n3)C(=O)C2=CN1c1ccccc1 (stereo unspecified) : 4.65
Cc1ccc(-c2ccc(CCC(=O)O)n2NC(N)=S)cc1 : 4.75
Cc1cc(-c2csc(NC(=O)c3ccc(C#N)cc3)n2)c(C)n1Cc1ccco1 : 4.78
NN=C1C(Cl)=C(Cl)C(Cl)=C1Cl : 4.20

# ---- query compound ----
Lab note: O=C(O)c1cccc2c1NC(C(=O)O)C1CC(Sc3ccccc3[N+](=O)[O-])C(Cl)C21 (stereo unspecified) gave pIC50 of 5.72

* * *

IC50 values by entry
# measurement-target: Protein Tat (Human immunodeficiency virus type 1 group M subtype B (isolate HXB2))
# assay-protocol: inhibitors of Tat binding to TAR RNA, dose response, counter-screen for Vif-APOBEC3G degradation inhibitor project, biochemical, fluorescence polarization, FAM-labeled TAR RNA (AID 1117361)

Recorded results for 8 compounds are shown here.
CNC[C@H](O)c1ccc(O)c(O)c1 : 11.8 µM
O=C(Nc1ccn(-c2ccccc2)n1)c1ccccc1Br : 30.2 µM
Cc1cc(O)ccc1-c1cnc2ccccc2n1 : 80.8 µM
CN(C)N1C(N)=C(C#N)C(c2cccnc2)C2=C1CCCC2=O (stereo not drawn) : 15.3 µM
CC(C)(C)C1C/C(=C/c2ccco2)C(=O)/C(=C/c2ccco2)C1 (stereo not drawn) : 7.08 µM
CC(=C/C(=O)O)/C=C/c1ccc(Cl)o1 : 92 µM
COc1ccc(OC)c(N2C(=O)[C@@H]3C(c4ccccc4Cl)=NO[C@@H]3C2=O)c1 : 82.1 µM
O=C(O)CCCNc1cc(N2CCC3(CC2)OCCO3)c2noc3c2c1C(=O)c1ccccc1-3 : 3.59 µM

Notebook: `O=C1CC(=O)N(Cc2ccco2)C(=S)N1` , IC50 read as 1.56 µM

Item: `CNCc1ccccc1Sc1cc(O)ccc1O` | IC50: 17.5 µM

Item: `S=c1[nH]nc(-c2cccnc2)n1/N=C/C=C/c1ccco1` | IC50: 5.3 µM

// IC50 lookup, compound = `Oc1cc2c(cc1O)[C@H]1c3ccc(O)c(O)c3OC[C@@]1(O)C2` , result: 15.7 µM

Data point: `O=C1CCCC(O)=C1N=Nc1ccc(S(=O)(=O)N2CCOCC2)cc1` ; IC50 = 37.6 µM

The recorded IC50 for entry `CN1C(=O)/C(=C/c2cccn2-c2ccc3ccccc3c2)C(=O)NC1=S` equals 44.5 µM

* * *

Recorded IC50 values for a group of compounds are listed next.
# measurement-target: Protein Tat (Human immunodeficiency virus type 1 group M subtype B (isolate HXB2)) (UniProt P04608)
# assay-protocol: inhibitors of Tat binding to TAR RNA, dose response, counter-screen for Vif-APOBEC3G degradation inhibitor project, biochemical, fluorescence polarization, FAM-labeled TAR RNA (AID 1117361)

Per the records, this compound ( `O=C(CCN1C(=O)/C(=C/c2cccs2)SC1=S)NC1=NCCS1` ) has IC50 equal to 46 µM

// field: IC50; key: `CCN(CC)S(=O)(=O)c1cccc(C(=O)N/N=C/c2ccc(O)c(O)c2O)c1` ; value = 92.7 µM

The reported value for Cc1ccc(C2C(C#N)=C(N)Oc3c2oc(CO)cc3=O)o1 (stereo not drawn) in terms of IC50 is 5.77 µM

* * *

# measurement-target: Protein Tat (Human immunodeficiency virus type 1 group M subtype B (isolate HXB2)) (UniProt P04608)
# assay-protocol: inhibitors of Tat binding to TAR RNA, dose response, counter-screen for Vif-APOBEC3G degradation inhibitor project, biochemical, fluorescence polarization, FAM-labeled TAR RNA (AID 1117361)
pIC50: −log10 of the molar value.
Could you label it met if measured pIC50 is 5 or higher, and not met otherwise?

Example cases with answers are listed next.
COc1ccc2nc(-c3ccco3)c(-c3ccco3)nc2c1 : met
COc1cccc2c1NC(C(=O)O)C1CC=CC21 (configuration not stated) : met
Cc1cccc(-n2c(Cc3cc(=O)[nH]c(=O)[nH]3)nnc2SCC(=O)NCC2CCCO2)c1 (configuration not stated) : not met
Cc1cc([N+](=O)[O-])cc2c1NC(c1ccccn1)C1CC=CC21 (configuration not stated) : not met
CC[n+]1ccc(C)c2cc(P(=O)(c3ccccc3)c3ccccc3)ccc21 : not met

Request: Quick check: does `CCOC(=O)C(=O)NCc1ccc(/C=C2/N=C(C)C(C(=O)OCC)=C2O)o1` have pIC50 greater than or equal to 5?
Result: met

Request: Quick check: does `O=c1c(-c2cc3ccccc3o2)[n+]([O-])c2ccccc2n1OCc1ccccn1` have pIC50 greater than or equal to 5?
Result: not met

Request: # bool: pIC50 of `O=C(Cc1csc(N2CCOCC2)n1)N/N=C/c1ccc(O)c(O)c1O` >= 5
Result: not met

Request: Given CC1CCCN(Cc2c(O)ccc3c2O/C(=C\c2ccco2)C3=O)C1 (configuration not stated) , state whether its pIC50 is at least 5.
Result: met

Request: Could you verify whether the entry `CCCCC(=O)NC(=S)Nc1cc(C(=O)O)ccc1Cl` shows pIC50 of no less than 5?
Result: not met

Request: Is the recorded value of pIC50 equal to or greater than 5 for this molecule? `COc1ccc(NC(=O)/C(C#N)=C\c2ccc(Br)o2)cc1`
Result: not met

Request: Does pIC50 meet or surpass 5 for `O=C(Nc1ccc2nc(-c3ccco3)c(-c3ccco3)nc2c1)NC1CC1` ?
Result: met

Request: Kindly determine if pIC50 recorded for `O=C1NC(=O)N(Cc2ccco2)C(=O)/C1=C/C=C/c1ccco1` is above or exactly 5.
Result: met

* * *

# measurement-target: Protein Tat (Human immunodeficiency virus type 1 group M subtype B (isolate HXB2)) (UniProt P04608)
# assay-protocol: inhibitors of Tat binding to TAR RNA, dose response, counter-screen for Vif-APOBEC3G degradation inhibitor project, biochemical, fluorescence polarization, FAM-labeled TAR RNA (AID 1117361)
attribute-measured: IC50

O=C1CC(SC(=S)C2CCCC2=O)C(=O)N1 (stereo unspecified) : 3.21 µM
O=C(Nc1nnc(C2CCCO2)s1)c1cccs1 (stereo unspecified) : 98.8 µM
COC(=O)CCC(=O)OC1(C)C(=O)C2=CN(CCCOC(C)C)C(c3ccc(OC)cc3)=CC2=C(Br)C1=O (stereo unspecified) : 19.1 µM
C=C(C)C(=O)Nc1cccc(C2=NOC3(C2)C[C@@H](C(N)=O)N(C(=O)CCCCC)C3)c1 (stereo partly specified) : 5.76 µM
Cc1oc(-c2ccc(Cl)cc2)cc1-c1nn2c(-c3ccoc3C)nnc2s1 : 2.87 µM

Now consider a different compound.
IC50 for CN(C(=O)COC(=O)c1cc(-c2ccco2)nc2ccccc12)C1CCS(=O)(=O)C1 (stereo unspecified) is 6.36 µM

* * *

# measurement-target: Protein Tat (Human immunodeficiency virus type 1 group M subtype B (isolate HXB2))
# assay-protocol: inhibitors of Tat binding to TAR RNA, dose response, counter-screen for Vif-APOBEC3G degradation inhibitor project, biochemical, fluorescence polarization, FAM-labeled TAR RNA (AID 1117361)
attribute-measured: IC50

Solved cases below.
O=C(O)C1=NN(c2cc(Cl)c(S(=O)(=O)O)cc2Cl)C(=O)C1 : 30.9 µM
O=C1NN(c2ccc(Cl)cc2)C(=O)/C1=C\c1ccc(-c2cccc(C(=O)O)c2)o1 : 23.4 µM
O=C(NCCCO)Nc1ccc2nc(-c3ccco3)c(-c3ccco3)nc2c1 : 2.01 µM
CCN(CC)C(=O)c1ccc2c(c1)C1C(Cl)C(Sc3ccccc3[N+](=O)[O-])CC1C(C(=O)O)N2 (stereo unspecified) : 5.54 µM
CC(C)c1ccc(/C=C/C(=O)N2CCc3ccccc3C2)cc1 : 33.7 µM

Lab note: `O=C(c1ccc2nc(-c3ccco3)c(-c3ccco3)nc2c1)N1CCC2(CC1)OCCO2` gave IC50 of 4.26 µM

Measured IC50 of `CCCCCC#CCC#CCC#CCC#CCCCC(=O)O` : 2.38 µM

So, `Cc1cc(C)c(C(=O)/C=C/c2ccco2)c(=O)[nH]1` ? Its IC50 was 12.1 µM

* * *

# measurement-target: Protein Tat (Human immunodeficiency virus type 1 group M subtype B (isolate HXB2))
# assay-protocol: inhibitors of Tat binding to TAR RNA, dose response, counter-screen for Vif-APOBEC3G degradation inhibitor project, biochemical, fluorescence polarization, FAM-labeled TAR RNA (AID 1117361)
pIC50: −log10 of the molar value.
Assign 1 to entries whose pIC50 meets or exceeds 5; assign 0 to the rest.

// below: answered compounds
COc1ccc(O)c(C(=O)C2c3ccccc3C(=O)N2c2ccc(C)cc2)c1 (stereo unspecified) : 1
Cc1cccc(NC(=O)CSc2nnc(-c3ccco3)c(-c3ccco3)n2)c1C : 0
O=[N+]([O-])c1c(NCCO)cc(Sc2nc3ccccc3s2)c2nonc12 : 0

Now examine the next entry.
Request: Check if pIC50 >= 5 (inclusive). Item: `O=S(=O)(Nc1nccs1)c1ccc(Nc2nnc(-c3ccccc3)c3ccccc23)cc1`
Result: 0
